We begin with a simple list: items and their reported Activity.
test system: Nucleic Acid; test: Displacement of ethidium bromide from herring sperm DNA assessed as remaining ethidium bromide at 50 uM by FID assay; type: nucleic-acid assay; settings: Clupeidae
reported_endpoint: Activity (%)

[
  {
    "structure_smiles": "C[C@@H]1O[C@H](OCC#Cc2c(-c3ccccc3)oc3ccccc23)CC[C@@H]1N",
    "numeric_value": 26.9
  },
  {
    "structure_smiles": "C[C@@H]1O[C@H](OCC#Cc2c(-c3ccccc3)sc3ccccc23)CC[C@H]1O",
    "numeric_value": 99.9
  },
  {
    "structure_smiles": "C[C@@H]1O[C@H](OCC#Cc2c(-c3ccccc3)oc3ccccc23)CC[C@H]1O",
    "numeric_value": 103
  },
  {
    "structure_smiles": "C[C@@H]1O[C@@H](OCC#Cc2c(-c3ccccc3)oc3ccccc23)CC[C@@H]1N",
    "numeric_value": 68.5
  },
  {
    "structure_smiles": "Cc1ccc(S(=O)(=O)n2c(-c3ccccc3)c(C#CCO[C@@H]3CC[C@@H](O)[C@H](C)O3)c3ccccc32)cc1",
    "numeric_value": 109
  },
  {
    "structure_smiles": "C[C@@H]1O[C@H](OCC#Cc2c(-c3ccccc3)sc3ccccc23)CC[C@@H]1N",
    "numeric_value": 26.6
  },
  {
    "structure_smiles": "Cc1ccc(S(=O)(=O)n2c(-c3ccccc3)c(C#CCO[C@H]3CC[C@@H](O)[C@H](C)O3)c3ccccc32)cc1",
    "numeric_value": 111
  },
  {
    "structure_smiles": "Cc1ccc(S(=O)(=O)n2c(-c3ccccc3)c(C#CCO[C@H]3CC[C@H](N)[C@H](C)O3)c3ccccc32)cc1",
    "numeric_value": 38.6
  },
  {
    "structure_smiles": "C[C@@H]1O[C@@H](OCC#Cc2c(-c3ccccc3)sc3ccccc23)CC[C@@H]1N",
    "numeric_value": 79.9
  },
  {
    "structure_smiles": "C[C@@H]1O[C@@H](OCC#Cc2c(-c3ccccc3)sc3ccccc23)CC[C@H]1O",
    "numeric_value": 103
  },
  {
    "structure_smiles": "Cc1ccc(S(=O)(=O)n2c(-c3ccccc3)c(C#CCO[C@@H]3CC[C@H](N)[C@H](C)O3)c3ccccc32)cc1",
    "numeric_value": 19.8
  },
  {
    "structure_smiles": "C[C@@H]1O[C@@H](OCC#Cc2c(-c3ccccc3)oc3ccccc23)CC[C@H]1O",
    "numeric_value": 96.7
  }
]

---

test system: HepG2; test: Cytotoxicity against human HepG2 cells assessed as cell viability at 25 uM by MTS assay; assay type: functional; conditions: read-out: Activity

[
  {
    "structure_smiles": "C[C@@H]1O[C@@H](OCC#Cc2c(-c3ccccc3)sc3ccccc23)CC[C@H]1OC=O",
    "viability at 25 µM": "< 1%"
  },
  {
    "structure_smiles": "C[C@@H]1O[C@@H](OCCCc2c(-c3ccccc3)oc3ccccc23)CC[C@@H]1N",
    "viability at 25 µM": "< 1%"
  },
  {
    "structure_smiles": "Cc1ccc(S(=O)(=O)n2c(-c3ccccc3)c(C#CCO[C@H]3CC[C@@H](O)[C@H](C)O3)c3ccccc32)cc1",
    "viability at 25 µM": "27%"
  },
  {
    "structure_smiles": "C[C@@H]1O[C@@H](OCC#Cc2c(-c3ccccc3)sc3ccccc23)CC[C@H]1N",
    "viability at 25 µM": "< 1%"
  },
  {
    "structure_smiles": "C[C@@H]1O[C@@H](OCCCc2c(-c3ccccc3)sc3ccccc23)CC[C@H]1O",
    "viability at 25 µM": "84%"
  },
  {
    "structure_smiles": "OCCCc1c(-c2ccccc2)oc2ccccc12",
    "viability at 25 µM": "91%"
  },
  {
    "structure_smiles": "C[C@@H]1O[C@@H](OCC#Cc2c(-c3ccccc3)sc3ccccc23)CC[C@@H]1O",
    "viability at 25 µM": "10%"
  },
  {
    "structure_smiles": "CC(=O)O[C@@H]1CC[C@@H](OCC#Cc2c(-c3ccccc3)oc3ccccc23)O[C@H]1C",
    "viability at 25 µM": "15%"
  },
  {
    "structure_smiles": "CC(=O)O[C@@H]1CC[C@H](OCCCc2c(-c3ccccc3)oc3ccccc23)O[C@H]1C",
    "viability at 25 µM": "42%"
  },
  {
    "structure_smiles": "C[C@@H]1O[C@H](OCC#Cc2c(-c3ccccc3)sc3ccccc23)CC[C@H]1O",
    "viability at 25 µM": "7%"
  },
  {
    "structure_smiles": "C[C@@H]1O[C@@H](OCCCc2c(-c3ccccc3)oc3ccccc23)CC[C@H]1O",
    "viability at 25 µM": "62%"
  },
  {
    "structure_smiles": "CC(=O)O[C@@H]1CC[C@H](OCC#Cc2c(-c3ccccc3)oc3ccccc23)O[C@H]1C",
    "viability at 25 µM": "5%"
  },
  {
    "structure_smiles": "C[C@@H]1O[C@H](OCC#Cc2c(-c3ccccc3)oc3ccccc23)CC[C@@H]1N",
    "viability at 25 µM": "< 1%"
  },
  {
    "structure_smiles": "C[C@@H]1O[C@@H](OCC#Cc2c(-c3ccccc3)oc3ccccc23)CC[C@H]1O",
    "viability at 25 µM": "< 1%"
  },
  {
    "structure_smiles": "C[C@@H]1O[C@@H](OCC#Cc2c(-c3ccccc3)sc3ccccc23)CC[C@@H]1OC(=O)c1ccccc1",
    "viability at 25 µM": "99%"
  },
  {
    "structure_smiles": "C[C@@H]1O[C@@H](OCCCc2c(-c3ccccc3)sc3ccccc23)CC[C@@H]1N",
    "viability at 25 µM": "< 1%"
  },
  {
    "structure_smiles": "OCCCc1c(-c2ccccc2)sc2ccccc12",
    "viability at 25 µM": "87%"
  },
  {
    "structure_smiles": "CC(=O)O[C@@H]1CC[C@H](OCC#Cc2c(-c3ccccc3)sc3ccccc23)O[C@H]1C",
    "viability at 25 µM": "< 1%"
  }
]

---

Activity: recorded values
system: Nucleic Acid; test: Displacement of ethidium bromide from herring sperm DNA assessed as remaining ethidium bromide at 100 uM by FID assay; assay type: nucleic-acid assay; conditions: Clupeidae
reported_endpoint: Activity (%)

[
  {
    "structure_smiles": "C[C@@H]1O[C@@H](OCCCc2c(-c3ccccc3)sc3ccccc23)CC[C@@H]1N",
    "tested_on": "Nucleic Acid",
    "reported_endpoint": "Activity",
    "numeric_value": 51.9
  },
  {
    "structure_smiles": "C[C@@H]1O[C@@H](OCC#Cc2c(-c3ccccc3)oc3ccccc23)CC[C@@H]1N",
    "tested_on": "Nucleic Acid",
    "reported_endpoint": "Activity",
    "numeric_value": 68.5
  },
  {
    "structure_smiles": "C[C@@H]1O[C@@H](OCC#Cc2c(-c3ccccc3)sc3ccccc23)CC[C@@H]1N",
    "tested_on": "Nucleic Acid",
    "reported_endpoint": "Activity",
    "numeric_value": 79.9
  },
  {
    "structure_smiles": "C[C@@H]1O[C@@H](OCCCc2c(-c3ccccc3)oc3ccccc23)CC[C@@H]1N",
    "tested_on": "Nucleic Acid",
    "reported_endpoint": "Activity",
    "numeric_value": 43.5
  }
]

---

tested on: HepG2; assay: Cytotoxicity against human HepG2 cells assessed as cell viability at 25 uM by MTS assay; assay type: functional; conditions: read-out: Activity
Threshold check on viability at 25 µM: strictly below 20% is fulfilled; on or above 20% is not fulfilled.

[
  {
    "structure_smiles": "C[C@@H]1O[C@H](OCC#Cc2c(-c3ccccc3)oc3ccccc23)CC[C@H]1O",
    "class_label": "fulfilled"
  },
  {
    "structure_smiles": "Cc1ccc(S(=O)(=O)n2c(-c3ccccc3)c(C#CCO[C@@H]3CC[C@@H](O)[C@H](C)O3)c3ccccc32)cc1",
    "class_label": "fulfilled"
  },
  {
    "structure_smiles": "CC(=O)O[C@@H]1CC[C@H](OCCCc2c(-c3ccccc3)sc3ccccc23)O[C@H]1C",
    "class_label": "not fulfilled"
  },
  {
    "structure_smiles": "C[C@@H]1O[C@H](OCC#Cc2c(-c3ccccc3)sc3ccccc23)CC[C@@H]1N",
    "class_label": "fulfilled"
  },
  {
    "structure_smiles": "C[C@@H]1O[C@@H](OCC#Cc2c(-c3ccccc3)sc3ccccc23)CC[C@H]1O",
    "class_label": "not fulfilled"
  },
  {
    "structure_smiles": "CC(=O)O[C@@H]1CC[C@@H](OCC#Cc2c(-c3ccccc3)sc3ccccc23)O[C@H]1C",
    "class_label": "fulfilled"
  },
  {
    "structure_smiles": "C[C@@H]1O[C@@H](OCC#Cc2c(-c3ccccc3)sc3ccccc23)CC[C@@H]1OC=O",
    "class_label": "fulfilled"
  },
  {
    "structure_smiles": "Cc1ccc(S(=O)(=O)n2c(-c3ccccc3)c(C#CCO[C@@H]3CC[C@H](N)[C@H](C)O3)c3ccccc32)cc1",
    "class_label": "fulfilled"
  }
]

Measured values drawn from ChEMBL document CHEMBL1687898 for this set.
